From: patent US20230340011A1

We begin with a simple list: items and their reported pEC50.
molecular target: UniProt:P55055; experiment: In vitro assay LXRβ: PathHunter NHR CHO cells, LXRβ / Steroid Receptor Co-activator Peptide enzyme fragment complementation; assay type: cell-based; conditions: PathHunter NHR CHO cells, full-length human LXRβ and SRCP, chemiluminescent signal; read-out: LXRβ PPI
pEC50: −log10 of the molar value.

Item smiles | System | pEC50
CC(=N)N1CCN(C(=O)CC[C@@H](C)[C@H]2CC[C@H]3[C@@H]4CC=C5C[C@@H](O)CC[C@]5(C)[C@H]4CC[C@]23C)CC1 | UniProt:P55055 | < 5.00
COC(=O)N1CCC(N(C)C(=O)CC[C@@H](C)[C@H]2CC[C@H]3[C@@H]4CC=C5C[C@@H](O)CC[C@]5(C)[C@H]4CC[C@]23C)CC1 | UniProt:P55055 | < 5.00
C[C@H](CCC(=O)N(C)C)[C@H]1CC[C@H]2[C@@H]3CC=C4C[C@@](C)(O)CC[C@]4(C)[C@H]3CC[C@]12C | UniProt:P55055 | < 5.00

Specify pEC50 for C[C@H](CCC(=O)N1CC(C)(C)[C@@H]2COC[C@@H]21)[C@H]1CC[C@H]2[C@@H]3CC=C4C[C@@H](O)CC[C@]4(C)[C@H]3CC[C@]12C and stop.
6.00 to 6.60

Answer with the recorded pEC50 for the compound listed here: C[C@H](CCC(=O)N1CC[C@@H](C(O)(C(F)(F)F)C(F)(F)F)C1)[C@H]1CC[C@H]2[C@@H]3CC=C4C[C@@H](O)CC[C@]4(C)[C@H]3CC[C@]12C
< 5.00

Give pEC50 for CCCCON(C)C(=O)CC[C@@H](C)[C@H]1CC[C@H]2[C@@H]3CC=C4C[C@@H](O)CC[C@]4(C)[C@H]3CC[C@]12C
5.00 to 6.00

Give the reported value of pEC50 for this record: C[C@H](CCC(=O)N1CCN(c2ccnc(N(C)C)n2)CC1)[C@H]1CC[C@H]2[C@@H]3CC=C4C[C@@H](O)CC[C@]4(C)[C@H]3CC[C@]12C
< 5.00

Please list pEC50 recorded for the compound C[C@H](CCC(=O)N1CCC[C@@H](O)C1)[C@H]1CC[C@H]2[C@@H]3CC=C4C[C@@H](O)CC[C@]4(C)[C@H]3CC[C@]12C
6.00 to 6.60

----------
Here, each record is paired with measured EC50 data.
target: LXRβ (Homo sapiens (Human)); assay: In vitro assay LXRβ: PathHunter NHR CHO cells, LXRβ / Steroid Receptor Co-activator Peptide enzyme fragment complementation; type: cell-based; settings: PathHunter NHR CHO cells, full-length human LXRβ and SRCP, chemiluminescent signal; read-out: LXRβ PPI
Sequence (P55055 whole entry, the tested form may be a part): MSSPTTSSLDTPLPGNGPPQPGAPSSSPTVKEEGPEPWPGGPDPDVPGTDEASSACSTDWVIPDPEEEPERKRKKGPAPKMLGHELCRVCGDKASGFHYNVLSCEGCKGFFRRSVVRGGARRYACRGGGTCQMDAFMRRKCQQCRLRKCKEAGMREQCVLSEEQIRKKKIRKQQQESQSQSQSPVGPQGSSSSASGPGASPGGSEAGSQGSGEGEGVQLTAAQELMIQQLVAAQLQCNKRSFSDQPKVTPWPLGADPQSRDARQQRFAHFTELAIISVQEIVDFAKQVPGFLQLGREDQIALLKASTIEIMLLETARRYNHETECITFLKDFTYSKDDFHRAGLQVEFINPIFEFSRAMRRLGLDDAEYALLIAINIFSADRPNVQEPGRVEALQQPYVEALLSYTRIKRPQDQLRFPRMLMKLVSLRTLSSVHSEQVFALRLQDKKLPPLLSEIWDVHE

Return EC50 (reported value) for this compound: CC(C)ON(C)C(=O)CC[C@@H](C)[C@H]1CC[C@H]2[C@@H]3CC=C4C[C@@H](O)CC[C@]4(C)[C@H]3CC[C@]12C [Example 14]
0.25 to 1 µM

Please give the documented EC50 of C[C@H](CCC(=O)N1CCN(C(=O)C(C)(C)O)[C@@H](C)C1)[C@H]1CC[C@H]2[C@@H]3CC=C4C[C@@H](O)CC[C@]4(C)[C@H]3CC[C@]12C [Example 652]
> 10 µM

Quick one: give measured EC50 for CCC1(OC)CCCN(C(=O)CC[C@@H](C)[C@H]2CC[C@H]3[C@@H]4CC=C5C[C@@H](O)CC[C@]5(C)[C@H]4CC[C@]23C)C1 (some centres unmarked) [Example 519]
1 to 10 µM

Return EC50 (reported value) for this compound: CC[C@]1(O)CC[C@@]2(C)C(=CC[C@H]3[C@@H]4CC[C@H]([C@H](C)CCC(=O)N5CCN(C(=O)OC)CC5)[C@@]4(C)CC[C@@H]32)C1 [Example 420]
> 10 µM

Identify the reported EC50 for the following entry. C[C@H](CCC(=O)N1CCC(F)(F)CC1)[C@H]1CC[C@H]2[C@@H]3CC=C4C[C@@H](O)CC[C@]4(C)[C@H]3CC[C@]12C [Example 79]
1 to 10 µM

Output measured EC50 for this item: C[C@H](CCc1cnsc1)[C@H]1CC[C@H]2[C@@H]3CC=C4C[C@@H](O)CC[C@]4(C)[C@H]3CC[C@]12C [Example 176]
> 10 µM
